Tested on: Magen
Test: Ulcer test (gastric ulceration)
Assay type: in vivo, Wistar-Eatten (SPF)
Settings: single oral dose equal to the ED40 of the adjuvant arthritis test; male Wistar rats, fasted 16 h; stomach examined 3 h after application
Please respond with reported Anzahl der Magenulzera bei gleicher Dosis for every item in the list.

COMPOUND: CC(C(=O)O)c1ccc(CC2CC2)cc1 (centres unmarked) [Verbindung 5]
VAL: 5,4
--
COMPOUND: CC(C(=O)O)c1ccc(CC2CCCC2)cc1 (centres unmarked) [Verbindung 6]
VAL: 0,6
--
COMPOUND: O=C(O)C1CCc2cc(CC3CCCC3)c(Cl)cc21 (centres unmarked) [Verbindung 8]
VAL: 2,2

For each entry beneath this line, provide reported Anzahl der Magenulzera bei gleicher Dosis.
1. O=C(O)C1CCc2cc(C=C3CCCC3)c(Cl)cc21 (centres unmarked) [Verbindung 9]
2. CC(C(=O)O)c1ccc(CC2CCCC2)c(Cl)c1 (centres unmarked) [Verbindung 7]

1. 0,7
2. 0,6
